Assay: Binding affinity to gerbil NK1 receptor
Parameters: species or system Gerbillinae
measure: IC50 (nM)
Write the value in nM as a bare number.

// FC(F)(F)c1cc(COCC2(c3ccccc3)CCNCC2)cc(C(F)(F)F)c1 : IC50 value = 2

----------
Sodium-dependent serotonin transporter (Homo sapiens) measurements of log10(IC50), listed per entry.
Sequence (P31645 whole entry): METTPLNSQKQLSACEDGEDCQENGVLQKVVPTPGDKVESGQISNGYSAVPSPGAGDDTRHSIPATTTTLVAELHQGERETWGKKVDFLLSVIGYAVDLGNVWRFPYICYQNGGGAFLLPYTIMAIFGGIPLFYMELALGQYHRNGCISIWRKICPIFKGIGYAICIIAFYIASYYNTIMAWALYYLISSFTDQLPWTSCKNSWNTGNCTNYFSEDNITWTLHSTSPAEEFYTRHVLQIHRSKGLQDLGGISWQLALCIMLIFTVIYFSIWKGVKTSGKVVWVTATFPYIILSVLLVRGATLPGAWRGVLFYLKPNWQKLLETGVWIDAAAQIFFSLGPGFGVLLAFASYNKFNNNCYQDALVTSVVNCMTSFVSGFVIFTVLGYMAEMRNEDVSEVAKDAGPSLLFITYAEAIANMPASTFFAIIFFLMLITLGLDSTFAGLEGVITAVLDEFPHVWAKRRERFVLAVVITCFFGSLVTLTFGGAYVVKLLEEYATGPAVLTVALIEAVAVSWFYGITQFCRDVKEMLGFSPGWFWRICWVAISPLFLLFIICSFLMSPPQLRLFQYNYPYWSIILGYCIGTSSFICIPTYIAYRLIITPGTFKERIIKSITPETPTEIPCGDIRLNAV
Recall that a logarithmic scale is used here: each number is log10 of IC50 in µM.

FC(F)(F)c1cc(COC[C@]2(c3ccccc3)CCCNCC2)cc(C(F)(F)F)c1 : -2.54
FC(F)(F)c1cc(COC[C@@]2(c3ccccc3)CCCN(Cc3ccccc3)CC2)cc(C(F)(F)F)c1 : -0.24
CN1CCCC[C@](COCc2cc(C(F)(F)F)cc(C(F)(F)F)c2)(c2ccccc2)C1 : -0.07

So, FC(F)(F)c1cc(COC[C@@]2(c3ccccc3)CCCCNC2)cc(C(F)(F)F)c1 ? Its log10(IC50) was -0.31

GET /value?item= FC(F)(F)c1cc(COC[C@@]2(c3ccccc3)CCCNCC2)cc(C(F)(F)F)c1 &field=log10(IC50) returns -1.59

Record CN1CCCC[C@@](COCc2cc(C(F)(F)F)cc(C(F)(F)F)c2)(c2ccccc2)C1 , field log10(IC50): -0.18

The origin of these recorded values is ChEMBL document CHEMBL2346641.
